# Tested on: NCI-H3122
# ASSAY_PROCEDURE: relative viability (nuclei count vs DMSO), 5 days (fraction); higher = more cells survive
# APPLIED_CONDITIONS: first compound 20 µM
MEASUREMENT_LABEL: relative viability
One number for each entry.

COMPOUND	relative viability
COCC1(CO)C(=O)C2CCN1CC2 (centres undefined) [PRIMA-1MET] + CC(=O)Nc1cccc(-n2c(=O)n(C3CC3)c(=O)c3c(Nc4ccc(I)cc4F)n(C)c(=O)c(C)c32)c1 [Trametinib] (partner 0.02 µM)	0.191
COCC1(CO)C(=O)C2CCN1CC2 (centres undefined) [PRIMA-1MET] + COc1cc2c(Oc3ccc(NC(=O)C4(C(=O)Nc5ccc(F)cc5)CC4)cc3F)ccnc2cc1OCCCN1CCOCC1 [Foretinib] (partner 0.25 µM)	0.882
COCC1(CO)C(=O)C2CCN1CC2 (centres undefined) [PRIMA-1MET] + O=C(CCCCCCC(=O)Nc1ccccc1)NO [Vorinostat] (partner 1 µM)	0.861

Switching to the query record.
Q: Which relative viability value is on record for COCC1(CO)C(=O)C2CCN1CC2 (centres undefined) [PRIMA-1MET] + C[C@@H](Oc1cc(-c2cnn(C3CCNCC3)c2)cnc1N)c1c(Cl)ccc(F)c1Cl [Crizotinib] (partner 1 µM) ?
Result: 0.284

====

# Tested on: NCI-H2342
# ASSAY_PROCEDURE: relative viability (nuclei count vs DMSO), 5 days (fraction); higher = more cells survive
# APPLIED_CONDITIONS: first compound 20 µM
MEASUREMENT_LABEL: relative viability
Give bare numbers.

Example cases with answers are listed next.
COMPOUND	relative viability
COCC1(CO)C(=O)C2CCN1CC2 (configuration not stated) [PRIMA-1MET] + COc1cc2c(Oc3ccc(NC(=O)C4(C(=O)Nc5ccc(F)cc5)CC4)cc3F)ccnc2cc1OCCCN1CCOCC1 [Foretinib] (partner 0.25 µM)	0.99
COCC1(CO)C(=O)C2CCN1CC2 (configuration not stated) [PRIMA-1MET] + Cc1nc(Nc2ncc(C(=O)Nc3c(C)cccc3Cl)s2)cc(N2CCN(CCO)CC2)n1 [Dasatinib] (partner 0.075 µM)	0.333
COCC1(CO)C(=O)C2CCN1CC2 (configuration not stated) [PRIMA-1MET] + NC(=O)Nc1cc(-c2cccc(F)c2)sc1C(=O)N[C@H]1CCCNC1 [AZD7762] (partner 0.2 µM)	0.41
COCC1(CO)C(=O)C2CCN1CC2 (configuration not stated) [PRIMA-1MET] + O=C(CCCCCCC(=O)Nc1ccccc1)NO [Vorinostat] (partner 1 µM)	0.607
COCC1(CO)C(=O)C2CCN1CC2 (configuration not stated) [PRIMA-1MET] + N=C(N)NC(=N)NCCc1ccccc1 [Phenformin] (partner 250 µM)	0.543
COCC1(CO)C(=O)C2CCN1CC2 (configuration not stated) [PRIMA-1MET] + Nc1ncn([C@H]2C[C@H](O)[C@@H](CO)O2)c(=O)n1 [Decitabine] (partner 2 µM)	0.684

Switching to the query record.
Q: Provide value of relative viability for this record tested with NCI-H2342: COCC1(CO)C(=O)C2CCN1CC2 (configuration not stated) [PRIMA-1MET] + CC(=O)c1c(C)c2cnc(Nc3ccc(N4CCNCC4)cn3)nc2n(C2CCCC2)c1=O [Palbociclib] (partner 0.5 µM)
Result: 0.463

====

Hi there, I'd appreciate the recorded relative viability for every entry that follows.
# Test system: NCI-H1793
# ASSAY_PROCEDURE: relative viability (nuclei count vs DMSO), 5 days (fraction); higher = more cells survive
# APPLIED_CONDITIONS: first compound 0.03162 µM
Numbers only.

Example cases with answers are listed next.
COMPOUND	relative viability
CCN(CC)CCCCNc1ncc2cc(-c3cc(OC)cc(OC)c3)c(NC(=O)NC(C)(C)C)nc2n1 + COc1cc2c(Oc3ccc(NC(=O)C4(C(=O)Nc5ccc(F)cc5)CC4)cc3F)ccnc2cc1OCCCN1CCOCC1 [Foretinib] (partner 0.25 µM)	0.759
O=c1cc(N2CCOCC2)oc2c(-c3cccc4c3sc3ccccc34)cccc12 + Nc1ncn([C@H]2C[C@H](O)[C@@H](CO)O2)c(=O)n1 [Decitabine] (partner 2 µM)	0.502
CCN(CC)CCCCNc1ncc2cc(-c3cc(OC)cc(OC)c3)c(NC(=O)NC(C)(C)C)nc2n1 + Cc1nc(Nc2ncc(C(=O)Nc3c(C)cccc3Cl)s2)cc(N2CCN(CCO)CC2)n1 [Dasatinib] (partner 0.075 µM)	0.312
CCN(CC)CCCCNc1ncc2cc(-c3cc(OC)cc(OC)c3)c(NC(=O)NC(C)(C)C)nc2n1 + NC(=O)Nc1cc(-c2cccc(F)c2)sc1C(=O)N[C@H]1CCCNC1 [AZD7762] (partner 0.2 µM)	0.581
CCN(CC)CCCCNc1ncc2cc(-c3cc(OC)cc(OC)c3)c(NC(=O)NC(C)(C)C)nc2n1 + O=C(CCCCCCC(=O)Nc1ccccc1)NO [Vorinostat] (partner 1 µM)	0.707
O=c1cc(N2CCOCC2)oc2c(-c3cccc4c3sc3ccccc34)cccc12 + CC(=O)Nc1cccc(-n2c(=O)n(C3CC3)c(=O)c3c(Nc4ccc(I)cc4F)n(C)c(=O)c(C)c32)c1 [Trametinib] (partner 0.02 µM)	0.411

Q: Provide value of relative viability for this record tested with NCI-H1793: CCN(CC)CCCCNc1ncc2cc(-c3cc(OC)cc(OC)c3)c(NC(=O)NC(C)(C)C)nc2n1 + CCNC(=O)c1noc(-c2cc(C(C)C)c(O)cc2O)c1-c1ccc(CN2CCOCC2)cc1 [Luminespib] (partner 0.01 µM)
Result: 0.198

====

# Test system: NCI-H2126
# ASSAY_PROCEDURE: relative viability (nuclei count vs DMSO), 5 days (fraction); higher = more cells survive
# APPLIED_CONDITIONS: first compound 0.01 µM
Values of relative viability strictly less than 0.5 map to TRUE, and values of at least 0.5 map to FALSE.

Use these answered entries as a reference point.
COMPOUND	ASSIGNED_CLASS
O=c1cc(N2CCOCC2)oc2c(-c3cccc4c3sc3ccccc34)cccc12 + CC(=O)Nc1cccc(-n2c(=O)n(C3CC3)c(=O)c3c(Nc4ccc(I)cc4F)n(C)c(=O)c(C)c32)c1 [Trametinib] (partner 0.02 µM)	FALSE
CCN(CC)CCCCNc1ncc2cc(-c3cc(OC)cc(OC)c3)c(NC(=O)NC(C)(C)C)nc2n1 + Cc1nc(NC(=O)N2CCC[C@H]2C(N)=O)sc1-c1ccnc(C(C)(C)C(F)(F)F)c1 [Alpelisib] (partner 2 µM)	FALSE
CCN(CC)CCCCNc1ncc2cc(-c3cc(OC)cc(OC)c3)c(NC(=O)NC(C)(C)C)nc2n1 + C[C@]1(O)C[C@@H](c2nc(-c3ccc4ccc(-c5ccccc5)nc4c3)c3c(N)nccn32)C1 [Linsitinib] (partner 1 µM)	FALSE

Q: Does CCN(CC)CCCCNc1ncc2cc(-c3cc(OC)cc(OC)c3)c(NC(=O)NC(C)(C)C)nc2n1 + CC(=O)c1c(C)c2cnc(Nc3ccc(N4CCNCC4)cn3)nc2n(C2CCCC2)c1=O [Palbociclib] (partner 0.5 µM) have relative viability strictly under 0.5?
Result: TRUE

====

# Test system: NCI-H1563
# ASSAY_PROCEDURE: relative viability (nuclei count vs DMSO), 5 days (fraction); higher = more cells survive
# APPLIED_CONDITIONS: first compound 2.53 µM
MEASUREMENT_LABEL: relative viability
Answers are plain numbers.

Example cases with answers are listed next.
MOLECULE	SYSTEM_NAME	relative viability
O=c1cc(-c2cccc3c2Sc2ccccc2S3)oc(N2CCOCC2)c1 + CS(=O)(=O)N1CCN(Cc2cc3nc(-c4cccc5[nH]ncc45)nc(N4CCOCC4)c3s2)CC1 [Pictilisib] (partner 1 µM)	NCI-H1563	0.738
O=c1cc(-c2cccc3c2Sc2ccccc2S3)oc(N2CCOCC2)c1 + CS(=O)(=O)CCNCc1ccc(-c2ccc3ncnc(Nc4ccc(OCc5cccc(F)c5)c(Cl)c4)c3c2)o1 [Lapatinib] (partner 2 µM)	NCI-H1563	0.934
O=c1cc(-c2cccc3c2Sc2ccccc2S3)oc(N2CCOCC2)c1 + Cc1nc(NC(=O)N2CCC[C@H]2C(N)=O)sc1-c1ccnc(C(C)(C)C(F)(F)F)c1 [Alpelisib] (partner 2 µM)	NCI-H1563	0.848

Q: Which relative viability value is on record for COc1nc(C)cnc1NS(=O)(=O)c1cccnc1-c1ccc(-c2nnco2)cc1 [Zibotentan] + COc1cc2c(Oc3ccc(NC(=O)C4(C(=O)Nc5ccc(F)cc5)CC4)cc3F)ccnc2cc1OCCCN1CCOCC1 [Foretinib] (partner 0.25 µM) ?
Result: 0.979

====

Hi there, I'd appreciate the recorded relative viability for every entry that follows.
# Test system: NCI-H2087
# ASSAY_PROCEDURE: relative viability (nuclei count vs DMSO), 5 days (fraction); higher = more cells survive
# APPLIED_CONDITIONS: first compound 0.253 µM
Give bare numbers.

COMPOUND	SYSTEM_NAME	relative viability
O=c1cc(-c2cccc3c2Sc2ccccc2S3)oc(N2CCOCC2)c1 + CC(C)C[C@H](NC(=O)[C@H](Cc1ccccc1)NC(=O)c1cnccn1)B(O)O [Bortezomib] (partner 0.002 µM)	NCI-H2087	1.02
COc1nc(C)cnc1NS(=O)(=O)c1cccnc1-c1ccc(-c2nnco2)cc1 [Zibotentan] + CS(=O)(=O)CCNCc1ccc(-c2ccc3ncnc(Nc4ccc(OCc5cccc(F)c5)c(Cl)c4)c3c2)o1 [Lapatinib] (partner 2 µM)	NCI-H2087	0.955
COc1nc(C)cnc1NS(=O)(=O)c1cccnc1-c1ccc(-c2nnco2)cc1 [Zibotentan] + C[C@@H](Oc1cc(-c2cnn(C3CCNCC3)c2)cnc1N)c1c(Cl)ccc(F)c1Cl [Crizotinib] (partner 1 µM)	NCI-H2087	1.07

Switching to the query record.
Q: Which relative viability value is on record for COc1nc(C)cnc1NS(=O)(=O)c1cccnc1-c1ccc(-c2nnco2)cc1 [Zibotentan] + C[C@]1(O)C[C@@H](c2nc(-c3ccc4ccc(-c5ccccc5)nc4c3)c3c(N)nccn32)C1 [Linsitinib] (partner 1 µM) ?
Result: 0.971
